System: MALME-3M melanoma
Assay: NCI tumour cell line growth inhibition, 48 h
Returns Criterion met if the recorded TGI is greater than or equal to 5 µM, and Criterion not met otherwise.

CN1CCN(CCOc2ccc(-c3cnc4c(-c5ccccc5F)cnn4c3)cc2)CC1 :: Criterion not met
COc1cccc2c1OC(c1ccc(Cl)cc1)C([N+](=O)[O-])=C2 (centres undefined) :: Criterion met
Cc1cc(C)n2nc3nc(N)c(C#N)c(-c4ccccc4)c3c2n1 :: Criterion met
O=S1(=O)C[C@H](O)[C@H](O)CS1 :: Criterion met
CN(C)c1nc2ccccc2[nH]1 :: Criterion met
FC(F)(F)c1ccc(N=C/C=C(/Nc2ccc(C(F)(F)F)cc2)c2ccc(Cl)cc2)cc1 :: Criterion met

Tell me whether TGI is at least 5 µM here: C=C1C(=O)OC2CCN3CC=C(COC(=O)C(C)(O)C4(CO4)C1C)C23 (centres undefined)
Criterion met

Entry to check: COC(=O)c1ccc(C(=O)NC(Cc2ccc(Oc3cc(CC(NC(=O)c4ccccc4C(=O)OC)C(=O)OC)ccc3OC)cc2)C(=O)OC)cc1 (centres undefined)
Criterion met

Query COc1ccc2c(c1)CCCC(Br)C2=O (centres undefined) next
Criterion met

Same question for CC(C)(C)NC(NC(C)(C)C)=C(/C=C(/Cl)[N+](=O)[O-])[N+](=O)[O-] please.
Criterion met

And for CCN(CC)c1ccc2c(c1)OC(N)=C(C#N)C2c1cc(OC)c2c(c1)OCO2 (centres undefined) ?
Criterion met

Input CC(C)CC1C(=O)NCCC(NC(=O)C(Cc2ccc(OC(C)(C)C)cc2)NC(=O)OC(C)(C)C)C(=O)NC(Cc2ccccc2)C(=O)NC(Cc2ccccc2)NC1=O (centres undefined)
Criterion met

* * *

Test system: M14 melanoma
Assay: NCI tumour cell line growth inhibition, 48 h
VALUE_TYPE: TGI

C=C1C(=O)O[C@@H]2C[C@@H]1CC/C(C)=C/CC/C(C)=C/CC[C@@]2(C)O :: 8.37 µM

Please look up its TGI: COc1cc(OC)c(-c2ccc(OCc3ccccc3)c3c(OC)cc(C)cc23)c2c1C(C)=N[C@H](C)C2
3.79 µM

* * *

The entries below come with measured TGI values attached.
Tested on: OVCAR-4 ovarian
Assay: NCI tumour cell line growth inhibition, 48 h

// below: answered compounds
CC(C)N(C(=O)C12C3C4C5(C#N)C3C1(C#N)C5C42I)C(C)C (stereo unspecified) :: > 100 µM
O=C(O)CC1NC(/C(=C/c2ccccc2)NC(=O)c2ccccc2)OC1=O (stereo unspecified) :: > 100 µM
CC(=O)c1cccc(NC(=O)C(=O)NNc2n[nH]c(=S)n2N)c1 :: 23.4 µM
COc1ccc(N2C(=O)CC(C3CC(C(C)(C)C)CCC3=O)C2=O)cc1 (stereo unspecified) :: > 100 µM
COc1cc(C(=O)n2c3ccc(Br)cc3c3nc4ccccc4nc32)cc(OC)c1OC :: > 100 µM

Consider the compound COc1ccccc1/C(=N\OCCC(=O)O)c1cccs1 and give its measured TGI.
> 100 µM

Follow-up item: CCOc1ccccc1C=C1c2ccccc2C(=O)c2ccccc21
> 100 µM

And the next one, CCOC(=O)C1=C(C)N(Cc2ccc(Cl)cc2Cl)C2(O)C=CC(=O)C3C(=O)N(c4ccccc4)C(=O)C132 (stereo unspecified) ?
4.2 µM

Proceed to C[N+](CCCl)(CCCl)Cc1cccc2cccc([N+](=O)[O-])c12
> 100 µM

For O=C(O)CCC(=O)c1ccc[nH]1 then?
> 100 µM

Proceed to CCCCCCCCCCCCOC1C(C(COC2OC(C3COC(C)(C)O3)C3OC(C)(C)OC23)NC(=O)Nc2ccc(C(=O)O)cc2)OC2OC(C)(C)OC21 (stereo unspecified)
15.3 µM

Param item: COc1ccc(C(C)=O)cc1N1C(=O)C2C(C1=O)C1(c3ccccc3)C(=O)C2(c2ccccc2)C(c2ccc(C)cc2)=C1c1ccc(C)cc1 (stereo unspecified)
> 100 µM

Repeat for the following compound: O=C1NC(=O)C(c2cnc3ccccn23)=C1c1cn2c3c(cc(F)cc13)CN(C(=O)N1CCCCC1)CC2
> 63.4 µM

Input CN1CCN(C(=O)CCNC(=O)Cc2ccc(C(=O)c3ccccc3)cc2)CC1
> 100 µM

Input CS(=O)(=O)Nc1ccc2c(c1)oc(=O)c1ccccc12
> 100 µM

* * *

Test system: TK-10 renal
Assay: NCI tumour cell line growth inhibition, 48 h
TGI by entry:

As a guide, the following entries are already answered.
O=C(CCn1[nH]c(=O)c(Cl)c(Cl)c1=O)NO :: > 100 µM
O=C(O)c1ccc(N=C(C(=Nc2ccc(C(=O)O)cc2)c2ccccc2)c2ccccc2)cc1 :: > 100 µM
Nc1c2c(nc3cc(F)c(F)cc13)CCC2 :: 77.7 µM
COc1cc(C#CC(=O)OC/C=C/c2ccc3c(c2)OCO3)cc(OC)c1OC :: 60.8 µM
O=C1NC(NNc2ccccc2)=N/C1=C\c1ccccc1O :: > 100 µM
CC(=O)c1cccc(NC(=O)C(=O)NNc2n[nH]c(=S)n2N)c1 :: 69.9 µM

Item under review: O=C1NC(=O)C(c2cnc3ccccn23)=C1c1cn2c3c(cc(F)cc13)CN(C(=O)N1CCCCC1)CC2 . Reported TGI?
23.8 µM

Same thing, different compound: N#CC(N)(C(=O)CCC(=O)Nc1cccc(Cl)c1)c1ccc(Cl)cc1 (stereo unspecified)
> 100 µM

* * *

Tested on: SK-MEL-2 melanoma
Assay: NCI tumour cell line growth inhibition, 48 h
VALUE_TYPE: TGI

COc1cc([C@H]2Oc3cc(O)c4c(=O)cc(-c5ccccc5)oc4c3O[C@@H]2CO)ccc1O :: > 100 µM
Nc1ncnc2c1ccn2C/C=C\CO :: > 100 µM
CC(=O)c1cccc(NC(=O)C(=O)NNc2n[nH]c(=S)n2N)c1 :: 13.1 µM

Recall the recorded TGI for O=C(CCn1[nH]c(=O)c(Cl)c(Cl)c1=O)NO with SK-MEL-2 melanoma and state it.
> 100 µM

* * *

Below is a list of entries, each paired with its recorded TGI value.
System: HL-60(TB) leukemia
Assay: NCI tumour cell line growth inhibition, 48 h

Use these answered entries as a reference point.
CN(CC(=O)O)c1ncc2c(n1)-c1ccccc1SC2 :: > 100 µM
CCCCS(=O)CCC(N)P(=O)(O)O (stereo unspecified) :: > 100 µM
O=c1c2sc(=S)n(-c3ccc(F)cc3)c2ncn1Cc1ccc(F)cc1F :: > 100 µM

Look up TGI: CN(C)/C=N/c1nc2c(ncn2C2OC(CO)C(O)C2O)c(=O)[nH]1 (stereo unspecified)
> 100 µM

Also check Cn1cc(CO)c2c1C(=O)C=C(N1CC1)C2=O
18.1 µM

For S=C1NC2(CCCCCC2)NN1c1ccccc1 then?
3.64 µM

* * *

System: SF-539 CNS
Assay: NCI tumour cell line growth inhibition, 48 h
TGI below 6 µM gives not fulfilled; TGI at or above it gives fulfilled.

Here are 5 compounds together with their reported answers.
Cn1c2c(c3ccccc31)C1CCCCCCC1C1C(=O)OC(=O)C21 (stereo not given) :: fulfilled
CN(C)CCCNC(=O)c1cc2[nH]c3c(cnc4ccc([N+](=O)[O-])cc43)c(=O)c2n1C :: fulfilled
CC(C)CCN1c2nc(Nc3cc(F)c(O)c(F)c3)ncc2N(C)C(=O)C1C (stereo not given) :: fulfilled
OC[C@H]1C[C@](O)(c2ccc(Cl)cc2)[C@@H](c2ccc(Cl)cc2)O1 :: fulfilled
CCN(CC)c1ccc2c(c1)OC(N)=C(C#N)C2c1cc(OC)c2c(c1)OCO2 (stereo not given) :: not fulfilled

In plain terms: is recorded TGI at least 6 µM for COc1ccccc1/C(=N\OCCC(=O)O)c1cccs1 ?
fulfilled

Next up: O=C(O)CCC(=O)c1ccc[nH]1
fulfilled

Another compound to check: N#Cc1c(NN)n(C2OC(CO)C(O)C2O)c2ncnc(N)c12 (stereo not given)
not fulfilled

Please give the result for COc1cccc(/C=C/c2cc(OC)c(OC)c(OC)c2)c1 too.
fulfilled

* * *

Test system: 786-0 renal
Test: NCI tumour cell line growth inhibition, 48 h
VALUE_TYPE: TGI

Example compounds with recorded TGI:
CN(C)N=Nc1ccc(NC=O)cc1 :: > 100 µM
CCCCC1=NNC(=O)C1 :: > 100 µM
C=C(CNCc1ccccc1)c1ccc(C(=O)Nc2ccccc2N)cc1 :: > 100 µM
C=C(c1nc2ccc(Cl)cc2[nH]c1=O)C(O)c1ccc(C(O)C(=O)c2nc3ccc(Cl)cc3[nH]c2=O)cc1 (stereo unspecified) :: > 100 µM

Item COc1cc(C#CC(=O)OC/C=C/c2ccc3c(c2)OCO3)cc(OC)c1OC with 786-0 renal - TGI?
> 100 µM

Then what about the compound Cc1ccc(NC(=O)C(=O)C(C(=O)c2ccc3ccccc3c2)C2OC(=O)c3ccccc32)cc1C (stereo unspecified) ?
23.8 µM
